Measured Cytotoxicity (% of permeable cells) of individual entries
System: TCC97-7 bladder cancer tumour cells carrying the Ser249Cys mutation of FGF receptor 3
TEST_METHOD_NOTES: Cytotoxic effect: percentage of permeabilized (very fluorescent, Hoechst 33342) TCC97-7 cells
Format: cell-based
CONDITION_DESCRIPTION: 0.01 μM, 3 days
MEASURE: Cytotoxicity (% of permeable cells) (%)

{"COMPOUND": "Cn1c(=O)n(Cc2cccc(F)c2)c(=O)c2cc(C(=O)c3nc(-c4cccc(C(N)=O)c4)c4ccccn34)ccc21 [compound 108]", "UNIT_OF_MEASURE": "%", "EXPERIMENTAL_RESULT": 4}
{"COMPOUND": "CCCn1c(=O)n(CCCC(C)C)c(=O)c2cc(C(=O)c3nc(-c4cccc(C(=O)[O-])c4)c4ccccn34)ccc21.[Na+] [compound 207]", "UNIT_OF_MEASURE": "%", "EXPERIMENTAL_RESULT": 5}
{"COMPOUND": "CCCn1c(=O)n(Cc2ccc(F)cc2)c(=O)c2cc(C(=O)c3nc(-c4cnc(N(C)C)nc4)c4ccccn34)ccc21 [compound 232]", "UNIT_OF_MEASURE": "%", "EXPERIMENTAL_RESULT": 3}
